These data points were gathered from patent US5401771A.

- TEST DESCRIPTION: Acute toxicity on mammals by oral route
- Assay type: in vivo, rats
- TEST PARAMETERS: rat, in vivo, rats, vehicle corn oil, read-out: LD50 O.R. (oral route)
VALUE TYPE: LD50

Please review the following examples before continuing.
1. COC(=O)/C(F)=C/[C@H]1[C@@H](C(=O)O[C@H](C#N)c2cccc(Oc3ccccc3)c2)C1(C)C ... > 200 mg/kg
2. COC(=O)/C(F)=C/[C@@H]1[C@@H](C(=O)O[C@H](C#N)c2cccc(Oc3ccccc3)c2)C1(C)C ... > 2000 mg/kg
3. COC(=O)/C(F)=C\[C@@H]1[C@@H](C(=O)O[C@H](C#N)c2cccc(Oc3ccccc3)c2)C1(C)C ... > 200 mg/kg

In the following, a different compound is considered.
For `COC(=O)/C(F)=C\[C@H]1[C@@H](C(=O)O[C@H](C#N)c2cccc(Oc3ccccc3)c2)C1(C)C` , what is its reported LD50?
~100 mg/kg

###

- TEST DESCRIPTION: Acute toxicity on mammals by intravenous route
- Type: in vivo, rats
- TEST PARAMETERS: rat, in vivo, rats, vehicle PEG 300, read-out: LD50 I.R. (intravenous route)
Entries and their measured LD50 follow.

Please review the following examples before continuing.
1. COC(=O)/C(F)=C/[C@H]1[C@@H](C(=O)O[C@H](C#N)c2cccc(Oc3ccccc3)c2)C1(C)C [Product D] ... 2.5 to 7.5 mg/kg
2. COC(=O)/C(F)=C\[C@H]1[C@@H](C(=O)O[C@H](C#N)c2cccc(Oc3ccccc3)c2)C1(C)C [Product C] ... 0.1 to 0.5 mg/kg
3. COC(=O)/C(F)=C\[C@@H]1[C@@H](C(=O)O[C@H](C#N)c2cccc(Oc3ccccc3)c2)C1(C)C [Product B] ... 2.5 to 5 mg/kg

In the following, a different molecule is considered.
For COC(=O)/C(F)=C/[C@@H]1[C@@H](C(=O)O[C@H](C#N)c2cccc(Oc3ccccc3)c2)C1(C)C [Product A] , what is its reported LD50?
~10 mg/kg
